The measured values listed here are drawn from patent US20260242478A1.

target: T1, PSMA Fab; assay: phage ELISA; biotinylated PSMA Fab on neutravidin plate, blocking buffer alone, anti-M13 HRP detection
T1 construct: also called Anti-PSMA Fab; 006 PSMA Fab
Where no end group is shown, it is not given here.
MEASUREMENT_TYPE: Phage binding ELISA signal, Anti-PSMA Fab
I only need the number, thanks.

Example entries begin here.
VKPVCKPVWMCVGF [Phage-3436]    1.76
VTPRCIPEWMCAGF (cysteine pairing not given here; also: fused to pIII of bacteriophage) [Phage-3442]    1.75
LEKVCKPMWMCTGF [Phage-3448]    1.75
SPIMCTPDWMCLGF [Phage-3439]    1.75
TPHACVPDWMCYGF [Phage-3444]    1.75
ITPMCIPAWMCEGV [Phage-3445]    1.75
VLHMCVPLWMCHGL [Phage-3435]    1.76
ETMICKPEWMCTGF [Phage-3441]    1.75

Proceeding to the next binder to report its Phage binding ELISA signal, Anti-PSMA Fab.
Q: Given PVRVCIPQWMCIGF [Phage-3440] , state its recorded Phage binding ELISA signal, Anti-PSMA Fab.
Ans: 1.75
